Reference source for all entries: patent US20220193063A1

- Tested on: mixed-gender cryopreserved human hepatocytes
- assayNotes: In vitro metabolism of Compound 1 in human cryopreserved hepatocytes; also: key: ND Not detected; trace: Trace: observed by HPLC/MS measurements only; + Minor as assessed by HPLC/UV measurements; ++ moderate as assessed by HPLC/UV measurements; +++ major as assessed by HPLC/UV measurements; * m/z 593 and m/z 505 co-eluted in rabbit hepatocytes; ** m/z 591c and m/z 593 were merged in human hepatocytes and Hepatopack; *** m/z 607 and m/z 751b were merged in rabbit hepatocytes
- Type: in vitro ADME
- reportedConditions: human cryopreserved hepatocytes; HPLC/UV/MS
- Description: Male CD-1 mouse hepatocytes (lot YHL), male Wistar-Han rat hepatocytes (Celsis; product number: M000065; lot: SLA), female New Zealand rabbit hepatocytes (lot 1510147), male cryopreserved cynomolgus monkey hepatocytes (Celsis; product number: M00305; lot: DNB) and mixed-gender cryopreserved human hepatocytes (Bioreclamation; product number: S01988; lot: DCM) were obtained for the hepatocyte in-vitro assessments. […] UV absorbance was monitored with a photo-diode array detector from 220-450 nm. […]
testReadout: Relative abundance of metabolite of Compound 1, Human

* C[C@]1(c2ccc(Cl)cn2)Oc2cccc(-c3cc[n+](Cc4nc5ccc(C(=O)O)cc5n4C[C@@H]4CCO4)cc3)c2O1 [Metabolite 569] | +
* O=C(O)c1ccc2nc(CN3CCC(c4cccc(O)c4O)CC3)n(C[C@@H]3CCO3)c2c1 [Metabolite 438] | trace
* C[C@]1(c2ccc(Cl)cn2)Oc2cccc(C3CCNCC3)c2O1 [Metabolite 331] | +
* CC1(c2ccc(Cl)cn2)Oc2cccc(C3CCN(Cc4nc5ccc(C(=O)OC6OC(C(=O)O)C(O)C(O)C6O)cc5n4CC4CCO4)CC3)c2O1 (stereo not shown) [Metabolite 751b] | +++

---

- testTarget: human GLP-1R (Homo sapiens, UniProt P43220, L260F)
- Sequence (P43220 24-463 L260F): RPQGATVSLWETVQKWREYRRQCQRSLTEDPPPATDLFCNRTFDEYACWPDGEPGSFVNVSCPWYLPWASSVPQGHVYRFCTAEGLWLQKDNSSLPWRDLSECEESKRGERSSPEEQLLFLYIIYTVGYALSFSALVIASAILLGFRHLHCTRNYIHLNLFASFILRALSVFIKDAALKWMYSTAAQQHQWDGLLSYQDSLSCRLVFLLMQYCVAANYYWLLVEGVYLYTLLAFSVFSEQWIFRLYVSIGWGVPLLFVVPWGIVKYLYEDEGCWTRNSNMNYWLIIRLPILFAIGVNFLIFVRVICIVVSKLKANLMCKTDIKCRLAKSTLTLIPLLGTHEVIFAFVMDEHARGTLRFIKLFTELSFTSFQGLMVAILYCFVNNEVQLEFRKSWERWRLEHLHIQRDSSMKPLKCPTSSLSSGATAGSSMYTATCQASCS
- assayNotes: CHO GLP-1R Clone C6 - Assay 2 (HTRF cAMP agonist assay, low receptor density)
testReadout: EC50 (nM)
I only need the number, in nM, no unit after it.

What is its EC50 for human GLP-1R (Homo sapiens, UniProt P43220, L260F)? Entry: C[C@]1(c2ccc(Cl)cn2)Oc2cccc(C3CCN(Cc4nc5ccc(C(=O)O[C@@H]6O[C@H](C(=O)O)[C@@H](O)[C@H](O)[C@H]6O)cc5n4C[C@@H]4CCO4)CC3)c2O1 [Metabolite 751b]
170

---

- Tested on: male Wistar-Han rat hepatocytes
- assayNotes: In vitro metabolism of Compound 1 in rat cryopreserved hepatocytes; also: key: ND Not detected; trace: Trace: observed by HPLC/MS measurements only; + Minor as assessed by HPLC/UV measurements; ++ moderate as assessed by HPLC/UV measurements; +++ major as assessed by HPLC/UV measurements; * m/z 593 and m/z 505 co-eluted in rabbit hepatocytes; ** m/z 591c and m/z 593 were merged in human hepatocytes and Hepatopack; *** m/z 607 and m/z 751b were merged in rabbit hepatocytes
- Type: in vitro ADME
- reportedConditions: rat cryopreserved hepatocytes; HPLC/UV/MS
testReadout: Relative abundance of metabolite of Compound 1, Rat

Illustrative cases are given below, each with its answer.
• C[C@]1(c2ccc(Cl)cn2)Oc2cccc(C3CCNCC3)c2O1 [Metabolite 331] = trace
• C[C@]1(c2ccc(Cl)cn2)Oc2cccc(-c3cc[n+](Cc4nc5ccc(C(=O)O)cc5n4C[C@@H]4CCO4)cc3)c2O1 [Metabolite 569] = trace
• CC1(c2ccc(Cl)cn2)Oc2cccc(C3CCN(Cc4nc5ccc(C(=O)OC6OC(C(=O)O)C(O)C(O)C6O)cc5n4CC4CCO4)CC3)c2O1 (centres unmarked) [Metabolite 751b] = +
• O=C(O)c1ccc2nc(CN3CCC(c4cccc(O)c4O)CC3)n(C[C@@H]3CCO3)c2c1 [Metabolite 438] = trace

Please examine the following record next.
# input compound: C[C@]1(c2ccc(Cl)cn2)Oc2cccc(C3CCN(Cc4nc5ccc(C(=O)O)cc5[nH]4)CC3)c2O1 [Metabolite 505] ; wanted: its Relative abundance of metabolite of Compound 1, Rat
trace

---

- Test system: Male CD-1 mouse hepatocytes
- assayNotes: In vitro metabolism of Compound 1 in mouse cryopreserved hepatocytes; also: key: ND Not detected; trace: Trace: observed by HPLC/MS measurements only; + Minor as assessed by HPLC/UV measurements; ++ moderate as assessed by HPLC/UV measurements; +++ major as assessed by HPLC/UV measurements; * m/z 593 and m/z 505 co-eluted in rabbit hepatocytes; ** m/z 591c and m/z 593 were merged in human hepatocytes and Hepatopack; *** m/z 607 and m/z 751b were merged in rabbit hepatocytes
- Format: in vitro ADME
- reportedConditions: mouse cryopreserved hepatocytes; HPLC/UV/MS
testReadout: Relative abundance of metabolite of Compound 1, Mouse

• C[C@]1(c2ccc(Cl)cn2)Oc2cccc(C3CCN(Cc4nc5ccc(C(=O)O)cc5[nH]4)CC3)c2O1 [Metabolite 505] = trace
• C[C@]1(c2ccc(Cl)cn2)Oc2cccc(-c3cc[n+](Cc4nc5ccc(C(=O)O)cc5n4C[C@@H]4CCO4)cc3)c2O1 [Metabolite 569] = +
• C[C@]1(c2ccc(Cl)cn2)Oc2cccc(C3CCNCC3)c2O1 [Metabolite 331] = +
• CC1(c2ccc(Cl)cn2)Oc2cccc(C3CCN(Cc4nc5ccc(C(=O)OC6OC(C(=O)O)C(O)C(O)C6O)cc5n4CC4CCO4)CC3)c2O1 (stereo not shown) [Metabolite 751b] = ++
